For each entry below, report its selectivity ratio value.
# Test details: Therapeutic index valued has been determined in H9 cells
# Assay type: cell-based
# Condition notes: human, read-out: Therapeutic index

response.value for O=c1cc(-c2ccccc2)sc2cc(O)c(O)cc12 (field: selectivity ratio) = 2.3

response.value for Oc1cc(-c2ccccc2)nc2c(S)cccc12 (field: selectivity ratio) = 2.9

response.value for O=c1cc(-c2ccccc2)oc2cc(O)cc(O)c12 (field: selectivity ratio) = 9

response.value for Nc1ccc2sc(-c3ccccc3)cc(=O)c2c1 (field: selectivity ratio) = 1.1

response.value for O=c1cc(-c2ccccc2)sc2ccc(O)cc12 (field: selectivity ratio) = 4.2

response.value for COc1cccc2sc(-c3ccccc3)cc(=O)c12 (field: selectivity ratio) = 1

response.value for Nc1cccc2c(=O)cc(-c3ccccc3)sc12 (field: selectivity ratio) = 3.8

response.value for Nc1cccc2sc(-c3ccccc3)cc(=O)c12 (field: selectivity ratio) = 2.5

response.value for CC(=O)Oc1ccc2c(=O)cc(-c3ccccc3)sc2c1 (field: selectivity ratio) = 0.6

response.value for O=c1cc(-c2ccccc2)sc2cc(O)ccc12 (field: selectivity ratio) = 5.7

response.value for CC(=O)Oc1cc2sc(-c3ccccc3)cc(=O)c2cc1OC(C)=O (field: selectivity ratio) = 4.6

----------
# System: TE-671
# Test details: Effective dose against 50% reduction in Human CNS tumor (TE671) cell number after 3-day incubation
# Type: functional
# Condition notes: TE-671, 72 h, read-out: ED50 (the source's name)
For each entry below, report its EC50 value.
Just the number in µg/mL, nothing appended.

response.value for O=c1cc(-c2ccccc2)sc2cc(O)c(O)cc12 (field: EC50) = 5.5

response.value for CC(=O)Oc1cc2sc(-c3ccccc3)cc(=O)c2cc1OC(C)=O (field: EC50) = 4.58

response.value for O=c1cc(-c2ccccc2)sc2ccc(O)cc12 (field: EC50) = 2.87

response.value for O=c1cc(-c2ccccc2)[s+]([O-])c2ccccc12 (centres undefined) (field: EC50) = 3.66

----------
# System: RPMI
# Test details: Effective dose against 50% reduction in Human melanoma (RPMI)cell number after 3-day incubation
# Format: functional
# Condition notes: 72 h, read-out: ED50 (the source's name)
Readout kind: EC50 (µg/mL)
Just the number in µg/mL, nothing appended.

response.value for O=c1cc(-c2ccccc2)sc2cc(O)c(O)cc12 (field: EC50) = 3.92

response.value for O=c1cc(-c2ccccc2)sc2ccc(O)cc12 (field: EC50) = 0.55

response.value for Nc1cccc2c(=O)cc(-c3ccccc3)sc12 (field: EC50) = 5.5

response.value for COc1cc2sc(-c3ccccc3)cc(=O)c2cc1OC (field: EC50) = 8.89

response.value for O=c1cc(-c2ccccc2)[s+]([O-])c2ccccc12 (configuration not stated) (field: EC50) = 5.5

response.value for CC(=O)Oc1cc2sc(-c3ccccc3)cc(=O)c2cc1OC(C)=O (field: EC50) = 5.5

response.value for COc1cccc(-c2cc(=O)c3cc(OC)c(OC)cc3s2)c1 (field: EC50) = 5.5

----------
# Assay system: Tubulin alpha chain (Sus scrofa)
# Sequence (P02550 whole entry, looked up): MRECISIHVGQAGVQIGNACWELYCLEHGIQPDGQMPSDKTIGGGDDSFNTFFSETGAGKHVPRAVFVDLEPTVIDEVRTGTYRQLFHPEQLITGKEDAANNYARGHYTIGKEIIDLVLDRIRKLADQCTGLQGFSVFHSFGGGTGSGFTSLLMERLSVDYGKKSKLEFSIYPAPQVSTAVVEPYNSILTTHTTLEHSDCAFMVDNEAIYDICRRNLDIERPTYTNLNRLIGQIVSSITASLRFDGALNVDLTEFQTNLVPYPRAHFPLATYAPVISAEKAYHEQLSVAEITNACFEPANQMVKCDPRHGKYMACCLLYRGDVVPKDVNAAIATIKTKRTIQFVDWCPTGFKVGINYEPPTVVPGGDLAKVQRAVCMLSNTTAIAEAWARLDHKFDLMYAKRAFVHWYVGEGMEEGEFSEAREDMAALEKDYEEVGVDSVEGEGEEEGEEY
# Test details: Inhibitory activity of the compound against tubulin polymerization
Readout kind: pIC50
Remember the convention: pIC50 equals -log10 of concentration in molar.

Tubulin alpha chain (Sus scrofa) assay, compound COc1ccc(-c2oc3c(OC)c(OC)c(OC)c(O)c3c(=O)c2OC)cc1O , recorded pIC50 = 6.08

Data origin, for the record: ChEMBL document CHEMBL1129311
